test system: Staphylococcus epidermidis; assay: MIC, broth microdilution; format: cell-based; details: read-out: MIC
// MIC lookup, one value per entry
reported.endpoint: MIC

INSERT INTO measurements (molecule, subject_of_test, result) VALUES
  ('CC[C@@H](C(=O)O)[C@@H]1O[C@@H]([C@@H](C)[C@H](O)[C@H](C)C(=O)[C@H](CC)[C@H]2O[C@]3(C=C[C@@H](O)[C@]4(CC[C@@](C)([C@H]5CC[C@](O)(CC)[C@H](C)O5)O4)O3)[C@H](C)C[C@@H]2C)[C@@H](C)C[C@@H]1C [narasin, reference compound]', 'Staphylococcus epidermidis', '0.96 µg/mL'),
  ('C[Si](C)(C)c1cccc(CN(Cc2ccccn2)Cc2ccccn2)c1O [Compound 6]', 'Staphylococcus epidermidis', '~7.5 µg/mL'),
  ('CC[Si](CC)(CC)c1cccc(CN(Cc2ccccn2)Cc2ccccn2)c1O [Compound 7]', 'Staphylococcus epidermidis', '~8.4 µg/mL');
